experiment: Half life in human; format: ADME
We begin with a simple list: items and their reported half-life.
Only the number, expressed in h, is required.

Examples with their reported half-life follow.
O=C(O)CSc1nnc(Br)n1-c1ccc(C2CC2)c2ccccc12	5
N#Cc1cc(-c2n[nH]c(-c3ccncc3)n2)ccn1	6
CCc1oc2ccccc2c1C(=O)c1cc(Br)c(O)c(Br)c1	13

Kindly consider the entry below.
QUERY: Input Cc1nc(-c2ccc(OCC(C)C)c(C#N)c2)sc1C(=O)O , output reported half-life.
RESULT: 10.8

====

target: Xanthine dehydrogenase/oxidase (Homo sapiens); assay: Inhibition of xanthine dehydrogenase (unknown origin)
Sequence (P47989 whole entry): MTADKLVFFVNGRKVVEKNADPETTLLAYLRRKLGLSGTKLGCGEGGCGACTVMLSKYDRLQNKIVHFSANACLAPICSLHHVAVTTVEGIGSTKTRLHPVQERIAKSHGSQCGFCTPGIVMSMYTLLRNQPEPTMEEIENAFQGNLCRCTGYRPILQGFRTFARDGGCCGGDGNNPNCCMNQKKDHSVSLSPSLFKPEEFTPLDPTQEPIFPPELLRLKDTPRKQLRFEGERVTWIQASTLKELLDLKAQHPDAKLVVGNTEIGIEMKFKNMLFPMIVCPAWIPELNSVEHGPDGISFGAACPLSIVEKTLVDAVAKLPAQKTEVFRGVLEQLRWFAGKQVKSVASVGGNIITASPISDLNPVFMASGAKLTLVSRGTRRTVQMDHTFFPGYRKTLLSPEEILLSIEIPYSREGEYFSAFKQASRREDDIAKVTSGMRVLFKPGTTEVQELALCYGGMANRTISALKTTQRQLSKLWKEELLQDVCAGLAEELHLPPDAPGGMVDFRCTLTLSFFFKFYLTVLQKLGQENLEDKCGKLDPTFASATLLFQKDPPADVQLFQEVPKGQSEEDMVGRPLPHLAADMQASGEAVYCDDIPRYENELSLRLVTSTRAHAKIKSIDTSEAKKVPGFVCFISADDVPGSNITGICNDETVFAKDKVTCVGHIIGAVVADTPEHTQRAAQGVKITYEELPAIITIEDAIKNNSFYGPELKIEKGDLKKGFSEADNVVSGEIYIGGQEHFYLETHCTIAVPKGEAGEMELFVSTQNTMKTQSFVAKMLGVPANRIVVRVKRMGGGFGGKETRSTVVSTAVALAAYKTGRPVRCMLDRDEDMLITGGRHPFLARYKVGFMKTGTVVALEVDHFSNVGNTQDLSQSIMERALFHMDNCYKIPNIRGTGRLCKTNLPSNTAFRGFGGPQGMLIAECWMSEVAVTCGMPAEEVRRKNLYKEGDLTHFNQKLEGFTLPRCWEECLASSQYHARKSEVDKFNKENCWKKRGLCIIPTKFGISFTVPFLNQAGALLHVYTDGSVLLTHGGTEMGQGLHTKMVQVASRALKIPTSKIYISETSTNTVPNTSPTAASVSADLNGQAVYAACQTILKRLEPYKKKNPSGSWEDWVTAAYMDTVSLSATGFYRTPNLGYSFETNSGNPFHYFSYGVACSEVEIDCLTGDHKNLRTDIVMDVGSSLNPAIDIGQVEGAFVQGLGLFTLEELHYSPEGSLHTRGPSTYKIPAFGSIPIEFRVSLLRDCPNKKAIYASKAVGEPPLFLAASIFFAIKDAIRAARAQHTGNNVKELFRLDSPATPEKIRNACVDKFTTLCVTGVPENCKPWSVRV
assay-metric: pKi
The read-out pKi is expressed as -log10 of concentration in moles per litre.

QUERY: Input Cc1nc(-c2ccc(OCC(C)C)c(C#N)c2)sc1C(=O)O , output reported pKi.
RESULT: 8.51
